System: SGC-7901
assayProcedure: Growth inhibition of Homo sapiens (human) SGC7901 cells by MTT assay
Type: functional
testReadout: GI (µM)
// note: answer is a bare numeric in µM

molecule="COc1ccc(-c2coc3cc(OC)cc(O)c3c2=O)cc1 [4',7-DIMETHOXY-5-HYDROXYGENISTEIN]" measuredvalue=7.78
molecule="CCCCCCCCCCOc1ccc(-c2coc3cc(OCCCCCCCCCC)cc(O)c3c2=O)cc1 [4',7-DIDECYLOXY-5-HYDROXYGENISTEIN]" measuredvalue=4.27
molecule=O=c1c(-c2ccc(OCc3ccccc3)cc2)coc2cc(OC(F)F)cc(OCc3ccccc3)c12 measuredvalue=4.24

Prompt line: Look up GI with SGC-7901 for this molecule: C=CCOc1ccc(-c2coc3cc(OCC=C)cc(O)c3c2=O)cc1 [4',7-DIALLYLOXY-5-HYDROXYGENISTEIN]
Response line: 6.51

Prompt line: Look up GI with SGC-7901 for this molecule: CCCCCCCOc1ccc(-c2coc3cc(OC(F)F)cc(OCCCCCCC)c3c2=O)cc1
Response line: 3.39

Prompt line: Look up GI with SGC-7901 for this molecule: COc1ccc(-c2coc3cc(OC(F)F)cc(OC)c3c2=O)cc1
Response line: 6.41

Prompt line: Look up GI with SGC-7901 for this molecule: CCCOc1ccc(-c2coc3cc(OC(F)F)cc(OCCC)c3c2=O)cc1
Response line: 2.15

Prompt line: Look up GI with SGC-7901 for this molecule: CCCCCCCCOc1ccc(-c2coc3cc(OCCCCCCCC)cc(O)c3c2=O)cc1 [4',7-DIOCTYLOXY-5-HYDROXYGENISTEIN]
Response line: 4.82

Prompt line: Look up GI with SGC-7901 for this molecule: CC(=O)Oc1cc(O)c2c(=O)c(-c3ccc(O)cc3)coc2c1 [7-ACETOXY-4',5-DIHYDROXYGENISTEIN]
Response line: 8.11

Prompt line: Look up GI with SGC-7901 for this molecule: CCCCCCCCOc1ccc(-c2coc3cc(OC(F)F)cc(OCCCCCCCC)c3c2=O)cc1
Response line: 1.64

Prompt line: Look up GI with SGC-7901 for this molecule: COc1cc(O)c2c(=O)c(-c3ccc(O)cc3)coc2c1
Response line: 3.94

Prompt line: Look up GI with SGC-7901 for this molecule: CCCCCCCCCCOc1ccc(-c2coc3cc(OC(F)F)cc(OCCCCCCCCCC)c3c2=O)cc1
Response line: 3.3

Prompt line: Look up GI with SGC-7901 for this molecule: CCOc1ccc(-c2coc3cc(OC(F)F)cc(OCC)c3c2=O)cc1
Response line: 5.51
